I'd appreciate it if you could supply Population Tubulin-Different-Phenotype (%) values for the items below.
# Tested on: U2OS
# TEST_SUMMARY: Multiplex assay against U2OS
# Assay type: toxicity, cell-based
# ASSAY_SETUP: human, 24 h, 1 µM, compound concentration 1 uM, replicate 2
Write it as a number; the unit % goes unstated.

[in] For the compound shown here, CN(C)C(=O)/C(C#N)=C/c1ccc(-c2nc3cnc4[nH]ccc4c3n2C2CCCCC2)o1 , give the reported Population Tubulin-Different-Phenotype (%).
[out] 36

[in] # get_value(readout='Population Tubulin-Different-Phenotype (%)', item= CN1CCN(CCOc2cc(OC3CCOCC3)c3c(Nc4c(Cl)ccc5c4OCO5)ncnc3c2)CC1 )
[out] 4

[in] Given C=CC(=O)Nc1cccc(C(=O)Nc2ccc(Nc3cc(-c4[nH]c(SC)nc4C)ccn3)cc2)c1 , state its recorded Population Tubulin-Different-Phenotype (%).
[out] 25

[in] // lookup Population Tubulin-Different-Phenotype (%) for C[C@@]1(C(=O)Nc2ccc(F)nc2)CCCN1c1nc(Nc2cc(C3CC3)n[nH]2)c2cccn2n1
[out] 51

[in] Population Tubulin-Different-Phenotype (%) for CN1CCC[C@@H]1CCO[C@](C)(c1ccccc1)c1ccc(Cl)cc1.O=C(O)/C=C/C(=O)O [CLEMASTINE FUMARATE] ?
[out] 6
